All values here come from the supplement of paper PMC6757056.

B1: library; a variant is named by its letters at N, in order (parent)
chain: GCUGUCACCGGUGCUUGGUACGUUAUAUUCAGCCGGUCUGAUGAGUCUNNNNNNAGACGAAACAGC

Variants of: B1
Assay: normalized RNA/DNA level without ligand (relative to sTRSVctl = 100) (log10 (% of sTRSVctl)); HEK293T overexpressing SLC46A1; higher = less ribozyme self-cleavage, higher mRNA level
Settings: without (6R,S)-folinic acid; ligand present: no
readout.label: normalized RNA/DNA level without ligand (log10)
Answers are plain numbers.

Below are worked cases with known answers.
[
  {
    "mutation.code": "GAGUCA",
    "recorded.number": 2
  },
  {
    "mutation.code": "UACGUU",
    "recorded.number": 1.97
  },
  {
    "mutation.code": "UACUAA",
    "recorded.number": 1.97
  },
  {
    "mutation.code": "GGGCUA",
    "recorded.number": 2.05
  },
  {
    "mutation.code": "UAGUGG",
    "recorded.number": 1.56
  },
  {
    "mutation.code": "ACAUCG",
    "recorded.number": 2.01
  },
  {
    "mutation.code": "UAGUGA",
    "recorded.number": 1.88
  },
  {
    "mutation.code": "CACGAU",
    "recorded.number": 1.99
  },
  {
    "mutation.code": "CCGUUC",
    "recorded.number": 2.05
  },
  {
    "mutation.code": "UUCUCC",
    "recorded.number": 2.08
  }
]

Dear colleague, could you please provide normalized RNA/DNA level without ligand (log10) for the variants listed below?
1. AGUAUG
2. GAUUAC
3. GCCAAA
4. ACUUUG

Data returned:
1: 1.89; 2: 1.99; 3: 2.02; 4: 1.94
